- Test system: K4 kissing-loop RNA reporter
- Experiment summary: apparent KD of K4 kissing-loop reporter; higher = weaker reporter binding
- Condition label: Eterna round: R107; input ligand: tryptophan 2.4 mM
Reported metric: apparent KD of K4 kissing-loop reporter (nM)
Supply the numeric figure in nM, leaving out any unit text.

Some sequences with recorded apparent KD of K4 kissing-loop reporter:
{"Sequence entry": "UAACUCUUGCAGUGAUGUUGCAAGUAAGCUCAGGAUAUCAGGAAACUGAGAAGGGAGCAUCCUGAGCAACUGCAAGAGCUCAGAA [[K1]-[K2]-[F1]-[F2]-[F]'-[K]'-[F]''_Design1]", "Readout unit": "nM", "apparent KD of K4 kissing-loop reporter": 87.5}
{"Sequence entry": "AAUUUUAAUAAUAAAUAAUAAAUAAAUGAUACCAGUAUUUUUUUUUACCCUUGGCAGCGUAUAUAAGGGCAGUGAUGUUGUCAAA [whbob_SS_Theo_A_w58]", "Readout unit": "nM", "apparent KD of K4 kissing-loop reporter": 169}

Now examine the next entry.
Returns the measured apparent KD of K4 kissing-loop reporter for the input sequence. Input: GGUUUAUAGGAGGAUACCAGUACGGAUAAAGUACGUUAAUAGUAGAGUGAUGUUCUAAAGUACCCUUGGCAGCUUAGAGUGAGUG [ExTheophylB.M]
94.3

----------
- System: K4 kissing-loop RNA reporter
- Experiment summary: apparent KD of K4 kissing-loop reporter; higher = weaker reporter binding
- Condition label: Eterna round: R107; input ligand: FMN 200 uM
The entries below are paired with their reported apparent KD of K4 kissing-loop reporter.
Remember to quote the unit after the number.

Some sequences with recorded apparent KD of K4 kissing-loop reporter:
{"Sequence entry": "GGAUGCAUAGUAGAUACCAGCAAGCUCGGAUAGUGAUGUUGUUCGCAGUCAUUUCGGUAGUGCCCUUGGCAGCUAGACGCCCGAU [theeternabot_exclusion_KL_Theo_B_36]", "Assayed system": "K4 kissing-loop RNA reporter", "apparent KD of K4 kissing-loop reporter": "0.109 µM"}
{"Sequence entry": "AUUAAUUUCAGAGGAUAUCGUUAUUUUUUUAAGUAUAAUCUAUUAUGCAGUGAUGUUGCUAUUAAUCGAGAAGGCUGAUUUAUAA [JR_ExcFMNB_Sub001]", "Assayed system": "K4 kissing-loop RNA reporter", "apparent KD of K4 kissing-loop reporter": "0.114 µM"}
{"Sequence entry": "UCGCGUCUGUGAGGAUAUCAGAACAGAGUGAUGUUCUGUCAACGCCCAGUGAUGUUGGAUGCGAUCUGAGAAGGCACUGGGCGCA [Same State FMN B GF 9]", "Assayed system": "K4 kissing-loop RNA reporter", "apparent KD of K4 kissing-loop reporter": "1.06 µM"}
{"Sequence entry": "UAUUAAUUGUCAGGAUAUCGUAAACGAGUGAUGUUCGUAUAUCGACGAUAGUCGAUUCUAUCUAAACGAGAAGGGACAUUAUUUA [JR_SSFMNB_Sub008]", "Assayed system": "K4 kissing-loop RNA reporter", "apparent KD of K4 kissing-loop reporter": "0.346 µM"}
{"Sequence entry": "AAUAAAAUCACGGCCGCCACUGAUUUCCGUAUUAGGAGUGAUGUUCCUAUGACUAUAUAAUUUAACAGGACCGGGUGAAUAUUUA [#21 K4 Tryptophan B Exclusion]", "Assayed system": "K4 kissing-loop RNA reporter", "apparent KD of K4 kissing-loop reporter": "0.111 µM"}

For K4 kissing-loop RNA reporter, provide apparent KD of K4 kissing-loop reporter of UGAUAGGACAGAAGGAGCGGUAGUGAUGUUACCAAAAGGAUAAGGUGUCAAAAGACACCCUACCAGGUAGGUCGCUGUCCUAUCU please.
0.124 µM

Find apparent KD of K4 kissing-loop reporter (K4 kissing-loop RNA reporter) for the entry AACCGUGUGGCGGCCGCCACUAGUCUCCAGUGAUGUUGGAGAGACCACGUAAGUGGUCUCCAACAUAGGACCGGGCCAUAUGGAA [Same State - Tryptophan B (Freestyle 26)]
0.204 µM

API: value(readout=apparent KD of K4 kissing-loop reporter, system=K4 kissing-loop RNA reporter) for record GAGUCCUUUGAAGGAUAUAGACGUCCCGAUCACUCAGUUGGCGAGCGAGUGAUGUUCGUUCCUAUACUAGAAGGUCAAAGCCUCC [theeternabot_sameState_KL_FMN_B_32]
0.225 µM

Field: apparent KD of K4 kissing-loop reporter (K4 kissing-loop RNA reporter). Entry: CUCCUUGGCUAAGGAUAUCGUAGUGAUGUUAUGGUCUUUGCUAAGACUUCUGAUAUUGAAUUCCGACGAGAAGGUAGAAGGACGG [theeternabot_exclusion_KL_FMN_B_18]
0.817 µM

# get_value(readout= apparent KD of K4 kissing-loop reporter, system= K4 kissing-loop RNA reporter) for UGAUACCAGACUGAUACCAGCGAGUGAUGUUCGCUGAAAUCAGGGUCAAAGACCCUGUCUCGCCCUUGGCAGCAGUCUGGUAUCU [TheoBX 20 #SwitchBubble #StaticStem];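 also: bound reporter read as fluorescence of individual clusters on recovered sequencing chips by microscopy, with normalized cluster intensities fitted with a binding model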
0.147 µM

// fetch K4 kissing-loop RNA reporter apparent KD of K4 kissing-loop reporter for GCAGUGAUGUUGCACGAGUAGGCUAGAGUACGAGGACCGGUACGGCCGCCACUCGUACGGAAGUCGCUAAUUUAUGGAAUGGUGA [#05 K4 Tryptophan A Same State]
0.713 µM

The values you see were collected from the supplement of paper PMC9170038.
